assay-remarks: NCI Yeast Anticancer Drug Screen. Data for the rad50 strain (AID 155);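 note: 0% = growth of vehicle-only cultures of the same strain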
experimental-conditions: S. cerevisiae rad50 strain growth inhibition; at 5.0 µM (retest, dose inferred, filed as 0.5); active compounds read high
Compounds without any hit were thinned out: in the full panel of roughly 79,000, 15% have a hit.
growth inhibition overview
Only the number, expressed in %, is required.

Some entries whose results are on file:
{"molecule": "COc1ccc(Br)c(/C=C/[N+](=O)[O-])c1", "measurement": 23}
{"molecule": "Nc1nc(N)c(-c2ccc(Cl)c(Cl)c2)c(COc2cccc(CNS(=O)(=O)c3ccc(S(=O)(=O)F)cc3)c2)n1", "measurement": 3}
{"molecule": "CNP(=O)(Oc1cc(Cl)c(Cl)cc1Cl)N1CCN(c2ccccc2)CC1 (stereo not given)", "measurement": 12}

From here, focus on the item given below.
# query: growth inhibition of entry CCCCCCCNC(=O)CI
42

----------
assay-remarks: NCI Yeast Anticancer Drug Screen. Data for the cln2 rad14 strain (AID 165);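 note: 0% = growth equal to vehicle treated cultures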
experimental-conditions: S. cerevisiae cln2 rad14 strain, at 5.0 µM (retest, dose inferred, filed as 0.5)
The panel holds about 79,000 compounds, 15% with a hit somewhere; the sample as a whole holds those more often. Calls of active or inactive are those of the source. No stated cut-off is given here; in the data, active means growth inhibition above about 70%; inactive means the rest.
Give one outcome, nothing more. List: label 1 for active, label 0 for inactive

Example results:
{"compound": "CC1=C(CC/C(C)=C/CCC2(C)CCC([C@H](C)C(=O)O)OO2)C(C)(C)CCC1 (some centres undefined) (tested in a mixture with another compound)", "class": "label 0"}
{"compound": "CCN1CCC(O)(c2ccc(O)cc2)C(C(=O)c2ccc(O)cc2)C1 (centres undefined)", "class": "label 0"}
{"compound": "COC(=O)C1=C(C(=O)OC)C2(OC(C)=O)c3ccccc3-c3ccccc3C12 (centres undefined)", "class": "label 1"}
{"compound": "C/C1=C\\[C@H](C)C[C@H](C)OC(=O)C[C@H](c2ccc(O)cc2)NC(=O)[C@@H](Cc2c(Br)[nH]c3ccccc23)N(C)C(=O)[C@H](C)NC(=O)[C@@H](C)C1", "class": "label 1"}
{"compound": "C[CH2][Sn]([Br])([CH2]C)[c]1ccccc1CN(C)C", "class": "label 0"}
{"compound": "ClC1CCCCC1[Se](Cl)(Cl)C1CCCCC1Cl (centres undefined)", "class": "label 0"}

Please state the recorded outcome for this compound: C[CH2][Sn]([CH2]C(=O)OC)([CH2]C(=O)OC)[c]1ccccc1
label 1

Please state the recorded outcome for this compound: C[CH2][Sn]1([CH2]C)[O]C2C(OC)OC3COC(c4ccccc4)OC3C2[O]1 (centres undefined)
label 0

Please state the recorded outcome for this compound: O=C(OCCl)c1ccccc1
label 0

----------
assay-remarks: NCI Yeast Anticancer Drug Screen. Data for the rad50 strain (AID 155);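 note: 0% = growth of vehicle-only cultures of the same strain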
experimental-conditions: S. cerevisiae rad50 strain growth inhibition; at 50.0 µM
About 79,000 compounds went through this panel and 15% of them were active in at least one assay; those are over-represented in the sample as a whole. Active and inactive are the calls of the source. No stated cut-off is given here; in the data, active means growth inhibition above about 70%; inactive means the rest.
Give one outcome, nothing more. List: active, inactive

Please state the recorded outcome for this compound: COc1ccc2c3c1O[C@H]1C(Br)C=C[C@H]4[C@@H](C2)N(C)CC[C@]314 (stereo partly specified)
inactive

Please state the recorded outcome for this compound: O=[N+]([O-])c1cc(-c2ccccc2)ccc1O
active

Please state the recorded outcome for this compound: O=C(O)c1ccc(I)cc1.[Ni]
active

Please state the recorded outcome for this compound: CO/C=C/c1ccc2c(c1)OCO2
inactive

Please state the recorded outcome for this compound: CCC/C=C/C=C/C(=O)OC1/C(=C/C(=O)OC)CC2CC(C(C)O)OC(=O)CC(O)CC3CC(OC(C)=O)C(C)(C)C(O)(CC4C/C(=C/C(=O)OC)CC(/C=C/C(C)(C)C1(O)O2)O4)O3 (stereo unspecified)
inactive

Please state the recorded outcome for this compound: CCOP(=O)(OCC)C(N)Cc1ccc(OC)c(OC)c1 (stereo unspecified)
inactive
